# TARGET UNDER TEST: ZIKV envelope glycoprotein (E) of strain MR766 (Uganda 1947) (Zika virus, UniProt Q32ZE1 291-790)
# Sequence (Q32ZE1 291-790 limits assumed): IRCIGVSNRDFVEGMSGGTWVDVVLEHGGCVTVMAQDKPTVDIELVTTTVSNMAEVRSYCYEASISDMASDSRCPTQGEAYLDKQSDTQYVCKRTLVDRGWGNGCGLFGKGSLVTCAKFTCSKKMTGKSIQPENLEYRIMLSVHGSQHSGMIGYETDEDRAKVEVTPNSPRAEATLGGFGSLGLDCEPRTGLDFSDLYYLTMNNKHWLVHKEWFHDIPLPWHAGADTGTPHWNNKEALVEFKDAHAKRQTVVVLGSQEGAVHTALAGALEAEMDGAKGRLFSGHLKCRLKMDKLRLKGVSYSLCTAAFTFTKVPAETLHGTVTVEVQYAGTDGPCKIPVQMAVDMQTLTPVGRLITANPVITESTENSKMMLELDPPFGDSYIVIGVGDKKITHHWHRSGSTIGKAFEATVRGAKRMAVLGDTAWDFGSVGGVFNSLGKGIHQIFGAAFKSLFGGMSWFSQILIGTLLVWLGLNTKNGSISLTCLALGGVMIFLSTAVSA
# MEASUREMENT DESCRIPTION: cell-based or functional assay
Please go through the items and note down their neutralization IC50, Vero cells.
One number for each entry, in nM.

In the examples that follow, each entry is paired with its recorded neutralization IC50, Vero cells.
# BINDER, ENDPOINT LABEL, EXPERIMENTAL VALUE
measured = [
    ("H4H25630P (antibody, V domains shown) VH: QVQLVQSGAEVKRPGASVKVSCKASDYTFTDYGISWVRQAPGQGLEWMGWFNTYNGNTNYAQKFQGRITMTTDTSTSTAYMELRSLRSDDTAIYYCARDWGLHYFENWGQGTLVTVSS VL: EIVLTQSPGTLSLSPGERATLSCRASQSVRNSYLAWYQQKPGQAPRLLIYGASSRDTGIPDRFSGSGSGTDFTLTISRLEPEDFAVYYCQQYGRSPWTFGQGTKVEIK", "neutralization IC50, Vero cells", 0.147),
    ("H4H25633P (antibody, V domains shown) VH: EVQLVESGGGLVQPGRSLRLSCAASGFTFDDYAIHWVRQAPGKGLEWVSGISWNSGYLGYADSVKGRFTISRDNAKNSLYLQMNSLRAEDTAFYYCAKDVAWGSVRHVFEIWGQGTMVTVSS VL: EIVLTQSPGTLSLSPGERATLSCRASQTITGNQLAWYQQKPGQAPRLLIYFTSSRATGIPDRFSGSGSGTDFSLTISRLEPEDFAVYFCQQFGYSPWTFGQGTKVEIK", "neutralization IC50, Vero cells", 0.102),
]

Kindly consider the entry below.
neutralization IC50, Vero cells reported for this binder H4H25710N (antibody, V domains shown) VH: EVQLLESGGGLVQPGGSLRLSCAASGFTVSNNYMSWVRQAPGKGLEWVSVIYSGGRTNYGDSVKGRFTISRDNSKNTLYLQMNSLRAEDTAVYYCARENYDFWSGDPYGWDVWGQGTTVTVSS VL: DIQMTQSPSSLSASVGDRVTITCRASQDISNYLAWFQQKPGKAPKSLIYGASSLQRGVPSKFRGSGSGTDFTLTISSLQPEDFASYYCQQYNSYPYTFGQGTKLEIK : 0.0471
